# targetEntity: PI3K α (p110α/p85α) (Homo sapiens, UniProt P42336)
# Construct: purchased Upstate / Millipore Corporation
# Sequence (P42336 whole entry): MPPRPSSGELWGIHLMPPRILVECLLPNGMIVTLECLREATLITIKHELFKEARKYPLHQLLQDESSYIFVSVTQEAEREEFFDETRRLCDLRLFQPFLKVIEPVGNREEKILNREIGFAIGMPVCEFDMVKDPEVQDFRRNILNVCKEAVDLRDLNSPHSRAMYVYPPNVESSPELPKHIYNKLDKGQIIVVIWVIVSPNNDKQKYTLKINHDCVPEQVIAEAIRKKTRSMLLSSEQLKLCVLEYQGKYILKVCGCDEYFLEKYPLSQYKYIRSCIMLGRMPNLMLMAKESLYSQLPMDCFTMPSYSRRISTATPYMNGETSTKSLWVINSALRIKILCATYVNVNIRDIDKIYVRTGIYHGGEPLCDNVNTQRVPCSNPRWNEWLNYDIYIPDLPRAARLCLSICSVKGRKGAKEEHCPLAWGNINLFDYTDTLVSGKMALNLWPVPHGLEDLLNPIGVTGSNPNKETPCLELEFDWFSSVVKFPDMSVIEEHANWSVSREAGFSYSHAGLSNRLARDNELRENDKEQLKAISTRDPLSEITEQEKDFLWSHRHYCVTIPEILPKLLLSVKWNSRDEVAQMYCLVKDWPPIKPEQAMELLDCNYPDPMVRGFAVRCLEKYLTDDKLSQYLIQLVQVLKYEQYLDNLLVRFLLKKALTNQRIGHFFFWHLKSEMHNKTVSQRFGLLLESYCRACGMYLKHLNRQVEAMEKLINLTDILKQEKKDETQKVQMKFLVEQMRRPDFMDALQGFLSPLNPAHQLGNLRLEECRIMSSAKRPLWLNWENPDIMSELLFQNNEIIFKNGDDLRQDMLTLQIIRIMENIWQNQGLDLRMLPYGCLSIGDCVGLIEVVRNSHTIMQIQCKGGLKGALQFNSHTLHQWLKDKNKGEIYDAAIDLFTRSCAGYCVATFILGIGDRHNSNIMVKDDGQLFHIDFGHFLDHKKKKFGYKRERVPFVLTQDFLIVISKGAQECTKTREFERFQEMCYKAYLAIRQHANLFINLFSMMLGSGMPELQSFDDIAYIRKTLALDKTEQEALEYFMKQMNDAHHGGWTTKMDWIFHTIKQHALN
# Sequence (P27986 whole entry partner): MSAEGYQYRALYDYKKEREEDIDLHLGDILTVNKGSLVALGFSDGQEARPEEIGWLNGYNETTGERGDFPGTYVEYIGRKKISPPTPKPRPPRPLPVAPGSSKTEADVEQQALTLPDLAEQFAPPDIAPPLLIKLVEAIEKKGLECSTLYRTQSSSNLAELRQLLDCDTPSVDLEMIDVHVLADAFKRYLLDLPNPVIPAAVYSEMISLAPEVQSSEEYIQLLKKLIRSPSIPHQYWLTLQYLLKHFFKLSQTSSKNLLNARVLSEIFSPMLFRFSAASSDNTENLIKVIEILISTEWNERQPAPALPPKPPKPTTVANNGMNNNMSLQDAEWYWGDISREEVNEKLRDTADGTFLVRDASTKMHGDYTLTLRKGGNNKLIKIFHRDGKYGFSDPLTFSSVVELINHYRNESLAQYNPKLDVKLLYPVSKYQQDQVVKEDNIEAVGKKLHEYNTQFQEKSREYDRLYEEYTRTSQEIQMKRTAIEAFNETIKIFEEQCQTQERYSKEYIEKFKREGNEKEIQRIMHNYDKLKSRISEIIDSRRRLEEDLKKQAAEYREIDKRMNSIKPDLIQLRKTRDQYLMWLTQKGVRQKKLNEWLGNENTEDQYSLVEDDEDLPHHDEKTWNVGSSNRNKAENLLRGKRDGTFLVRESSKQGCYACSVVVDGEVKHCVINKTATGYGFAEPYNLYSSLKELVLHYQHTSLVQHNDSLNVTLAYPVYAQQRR
# protocol: PI 3-Kinase (human) HTRF assay, PI3K α
# Format: biochemical
# conditionDescription: read-out: PI3K α IC50
readoutKind: IC50

{"columns": ["molecule", "readoutKind", "experimentalResult"],
 "data": [
  ["CN1CCN(C(=O)C2CN(c3cnc4ccc(-c5ccc6oc(N)nc6c5)cc4n3)C2)CC1 [Compound 253]", "IC50", "> 10000 nM"],
  ["CCN(CC)CCNC(=O)c1cnc2ccc(-c3ccc4oc(N)nc4c3)cn12", "IC50", "< 1000 nM"],
  ["CN1CCC(Nc2nc3cc(-c4ccc5ncc(C(=O)N6CCOCC6)n5c4)ccc3o2)CC1", "IC50", "> 10000 nM"],
  ["Cc1ccc(-c2cnc3ccc(-c4ccc5oc(N)nc5c4)cc3n2)cn1", "IC50", "< 100 nM"],
  ["CC(=O)N1CCN(c2cnc3ccc(-c4ccc5oc(N)nc5c4)cc3n2)CC1", "IC50", "< 100 nM"],
  ["CS(=O)(=O)N1CCN(Cc2cc3nc(-c4ccc5oc(N)nc5c4)nc(N4CCOCC4)c3s2)CC1", "IC50", "< 100 nM"],
  ["CS(=O)(=O)CCN1CCN(C(=O)c2cnc3ccc(-c4ccc5oc(N)nc5c4)cn23)CC1", "IC50", "< 100 nM"],
  ["Nc1ccc2cc(-c3ccc4nccc(-c5ccncc5)c4c3)ccc2n1", "IC50", "< 1000 nM"],
  ["CN1CCN(c2cnc3ccc(-c4ccc5oc(N)nc5c4)cc3n2)CC1", "IC50", "< 100 nM"],
  ["Nc1nc2cc(-c3ccc4ncc(N5CC(C(=O)NC6CC6)C5)nc4c3)ccc2o1", "IC50", "< 100 nM"],
  ["Nc1nc2cc(-c3ccc4ncc(-c5ccncc5)n4n3)ccc2o1", "IC50", "< 100 nM"],
  ["CCN1CCN(C2CN(c3cnc4ccc(-c5ccc6oc(N)nc6c5)cc4n3)C2)CC1", "IC50", "< 100 nM"],
  ["Nc1nc2cc(-c3ccc4ncc(-c5ccccc5)nc4c3)ccc2o1", "IC50", "< 1000 nM"],
  ["Nc1nc2cc(-c3ccc4ncc(N5CCOCC5)n4c3)ccc2o1", "IC50", "< 10000 nM"],
  ["CC(C)N1CCC(n2cnc3ccc(-c4cncc(NS(=O)(=O)c5ccc(F)cc5F)c4)cc3c2=O)CC1", "IC50", "< 1000 nM"],
  ["Nc1nc2cc(-c3ccc4ncc(N5CC[C@H](N6CCOCC6)C5)nc4c3)ccc2o1", "IC50", "< 1000 nM"],
  ["Nc1nc2cc(-c3ccc4ncc(C(=O)N5CCC(O)C5)n4c3)ccc2o1 (centres unmarked)", "IC50", "< 100 nM"]
]}

====

# targetEntity: PI3K γ (p110γ) (Homo sapiens)
# Construct: purchased Upstate / Millipore Corporation
# Sequence (P48736 whole entry): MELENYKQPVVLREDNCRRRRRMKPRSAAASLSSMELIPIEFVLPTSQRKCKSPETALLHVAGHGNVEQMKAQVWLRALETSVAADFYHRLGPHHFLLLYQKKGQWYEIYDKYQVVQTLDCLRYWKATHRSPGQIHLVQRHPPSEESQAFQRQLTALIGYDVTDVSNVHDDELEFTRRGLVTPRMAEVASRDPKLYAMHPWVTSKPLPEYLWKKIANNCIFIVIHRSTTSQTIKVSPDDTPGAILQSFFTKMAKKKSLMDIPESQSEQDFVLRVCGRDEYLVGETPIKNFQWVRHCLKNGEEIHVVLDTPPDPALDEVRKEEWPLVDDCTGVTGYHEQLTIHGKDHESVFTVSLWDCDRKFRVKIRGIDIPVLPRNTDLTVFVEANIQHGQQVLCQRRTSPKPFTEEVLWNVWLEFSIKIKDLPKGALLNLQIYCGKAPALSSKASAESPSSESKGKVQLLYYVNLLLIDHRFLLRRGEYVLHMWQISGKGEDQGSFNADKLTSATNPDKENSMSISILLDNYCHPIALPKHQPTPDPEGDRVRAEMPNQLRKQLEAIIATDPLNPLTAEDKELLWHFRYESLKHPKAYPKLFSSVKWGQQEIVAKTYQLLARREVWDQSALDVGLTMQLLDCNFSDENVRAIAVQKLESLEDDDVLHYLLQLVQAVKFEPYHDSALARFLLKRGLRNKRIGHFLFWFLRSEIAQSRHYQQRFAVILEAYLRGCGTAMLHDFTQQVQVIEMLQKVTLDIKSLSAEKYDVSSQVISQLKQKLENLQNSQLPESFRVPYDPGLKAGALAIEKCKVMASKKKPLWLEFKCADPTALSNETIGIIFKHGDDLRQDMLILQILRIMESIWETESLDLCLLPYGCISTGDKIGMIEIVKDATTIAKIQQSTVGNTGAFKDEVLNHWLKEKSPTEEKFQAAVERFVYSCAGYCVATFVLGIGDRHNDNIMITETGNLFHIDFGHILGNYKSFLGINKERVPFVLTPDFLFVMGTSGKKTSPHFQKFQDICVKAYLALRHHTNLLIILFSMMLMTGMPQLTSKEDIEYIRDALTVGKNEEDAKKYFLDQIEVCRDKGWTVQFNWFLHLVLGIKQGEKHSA
# protocol: PI 3-Kinase (human) HTRF assay, PI3K γ
# Type: biochemical
# conditionDescription: read-out: PI3K γ IC50
pIC50: −log10 of the molar value.
Each item that follows carries a reported pIC50.
readoutKind: pIC50

{"columns": ["molecule", "experimentalResult"],
 "data": [
  ["C[C@H]1CN(C2CN(C(=O)c3cnc4ccc(-c5ccc6oc(N)nc6c5)cn34)C2)CCN1 [Compound 510]", "> 5.00"],
  ["CCN(CC)CCNC(=O)c1cnc2ccc(-c3ccc4oc(N)nc4c3)cn12 [Compound 295]", "> 6.00"],
  ["Nc1nc2cc(-c3ccc4ncc(N5CCOCC5)n4c3)ccc2o1 [Compound 53]", "< 5.00"],
  ["O=C(c1cnc2ccc(-c3cnc(Cl)c4[nH]ncc34)cn12)N1CCOCC1 [Compound 516]", "< 5.00"],
  ["Nc1nc2cc(-c3ccc4ncc(C(=O)N5CC(N6CC[C@H](O)C6)C5)n4c3)ccc2o1 [Compound 469]", "> 6.00"],
  ["Cc1nc2ccc(-c3ccc4oc(N)nc4c3)cn2c1C(=O)N1CCOCC1 [Compound 92]", "< 5.00"],
  ["CNC(=O)N1CCN(c2cnc3ccc(-c4ccc5oc(N)nc5c4)cc3n2)CC1 [Compound 154]", "> 7.00"],
  ["Nc1nc2cc(-c3ccc4ncc(C(=O)NCCCN5CCCC5)n4c3)ccc2o1 [Compound 293]", "> 6.00"]
]}

Entry source: patent US20150087627A1
